# Test system: SK-OV-3
# measurementNotes: NCI tumour cell line growth inhibition, 48 h
The source made the active and inactive calls. No stated cut-off is given here; in the data, active = GI50 up to about 1.1 µM and inactive = higher.
readoutType: GI50

Solved entries (count: 4):
{"compound": "CC1(C)C=C(/C=C2/N(S(=O)(=O)C(F)(F)F)C(/C=C3/N(S(=O)(=O)C(F)(F)F)C(C)(C#N)CC3(C)C)=CC2(C)C)N=C1/C=C1/CC(C)(C)C(=O)N1 (stereo not given)", "GI50": "45.7 µM (inactive)"}
{"compound": "COc1cccc(NC(=O)CC(=O)N2N=C(N(CCC#N)c3ccccc3C)CC2c2ccccc2)c1 (stereo not given)", "GI50": "> 100 µM (inactive)"}
{"compound": "O=C(O)CC[P+](c1ccccc1)(c1ccccc1)c1ccccc1", "GI50": "88.5 µM (inactive)"}
{"compound": "CCOC(=O)Cc1nn2c(=O)cc(C)nc2s1", "GI50": "> 100 µM (inactive)"}

Now look at this entry.
Recorded GI50 for `N#Cc1c(Nc2ccccc2)[n+]([O-])c2ccc(Cl)cc2[n+]1[O-]` on SK-OV-3 was 21.2 µM (inactive)

---

# Tested on: COLO 205
# measurementNotes: NCI tumour cell line growth inhibition, 48 h
Calls of active or inactive are those of the source. Cut-off read from the data, not from the text of the source: active = GI50 up to about 1.1 µM and inactive = higher.
Outcomes you can answer with include only these: True for active, False for inactive

{"molecule": "CC1=NN(c2nc(N)nc(C(C#N)C(=O)c3cc4c(cc3Cl)Sc3nccn3S4(=O)=O)n2)C(C)(C)C1 (centres undefined)", "classLabel": "False"}

## Task Check the results log: what was the call for `Nc1ccn(CCOC(=O)c2ccccc2)c(=O)n1` ?
## Result False

## Task GET /call?item= `O=C1/C(=C2/CCCN2)C(c2ccc[nH]2)=NN1c1ccccc1` returns the recorded outcome of this test.
## Result False

---

# System: SNB-75
# measurementNotes: NCI tumour cell line growth inhibition, 48 h
Active and inactive are the calls of the source. Cut-off read from the data, not from the text of the source: active = GI50 up to about 1.1 µM and inactive = higher.
Your answer must be one of the following: active, inactive

// known answers, use as guide
{"compound": "C=C1CCc2ccccc2C1=O", "classLabel": "inactive"}
{"compound": "CC(C)C[C@H](NC(=O)[C@H](Cc1ccccc1)NC(=O)CCc1ccccc1)B(O)O", "classLabel": "active"}
{"compound": "NC(=O)CCCC(NCc1c2ccccc2nc2ccccc12)C(=O)O (configuration not stated)", "classLabel": "inactive"}
{"compound": "CO/C(=N\\N=C(/C)C(F)(F)F)c1ccncc1", "classLabel": "inactive"}
{"compound": "O=C(OCc1c(-c2ccccc2)nn(-c2ccccc2)c1COC(=O)Oc1ccccc1)Oc1ccccc1", "classLabel": "inactive"}
{"compound": "CCOC(=O)c1ccc(Nc2nc3ccc(C(F)(F)F)cc3nc2-c2ccccc2)cc1", "classLabel": "inactive"}
{"compound": "CCOP(=O)(C/C=C/Cn1ncc(=O)[nH]c1=O)OCC", "classLabel": "inactive"}
{"compound": "COc1cc(S(=O)(=O)Nc2ccc(-c3csc(N4C(=O)CSC4c4ccccc4)n3)cc2)ccc1Cl (configuration not stated)", "classLabel": "inactive"}
{"compound": "COc1ccc(C(=O)NCCN(C)C)c2nc3ccccc3nc12", "classLabel": "inactive"}
{"compound": "CCOC(NC(=O)CC)(C(F)(F)F)C(F)(F)F", "classLabel": "inactive"}

## Task Which outcome was entered for the compound CC1(C)C(CCO)CC1n1ccc(=O)[nH]c1=O (configuration not stated) in this test?
## Result inactive

## Task Please indicate how the test categorized `COc1ccc2c(c1)c1c(C)c3cnccc3c(C)c1n2CCCN` .
## Result active

## Task Which outcome was assigned to `CCn1c(SCc2nnc(Nc3ccccc3)s2)nc2ccccc2c1=O` in this test?
## Result inactive

## Task Given CN(C(=O)C12C3C4C1C1C2C3C41C(=O)N(C)C(C)(C)C)C(C)(C)C (configuration not stated) , state the outcome it received in this test.
## Result inactive

## Task Status in this test for CC1=CC(=O)c2c(O)cccc2C1=O [PLUMBAGIN] ?
## Result inactive

## Task Hello, I am checking results. What call was entered for `C/C(=C\CO)CC[C@@H]1[C@@]2(C)CCCC(C)(C)[C@@H]2CC[C@@]1(C)O` ?
## Result inactive

## Task State the result this test recorded for `O=C(C(=O)n1ccc2ccccc21)c1c[nH]c2ccccc12` .
## Result inactive

## Task Dear all, I need the recorded test outcome for `O=c1c2c(nc3[nH]ccn13)CCC2` , thank you.
## Result inactive

## Task Call for entry `OCc1cc2c(ccc3sc4ccc5sc6ccc7ncccc7c6c5c4c32)s1` :
## Result inactive

## Task Returns: the outcome recorded for `Cc1nc(O)nc(N/N=C/c2ccc(Cl)c(Cl)c2)c1C(=O)Nc1ccc(Cl)c(Cl)c1` in this assay.
## Result inactive

## Task Hi, do you know how `C[C@@H]1OC(=O)/C(=C\N(C)C)[C@H]2CC(=O)N(CCc3cn(S(=O)(=O)C(F)(F)F)c4ccccc34)C[C@H]12` came out in this test?
## Result inactive

## Task Please state the recorded outcome for this compound: `Cc1sc2nc3n(c(=O)c2c1C)N=CN(c1ccc(F)cc1)C3`
## Result inactive
